Tested on: Escherichia coli
assay comment: Antibacterial activity against Escherichia coli MC4100 assessed as growth inhibition after 72 hrs by broth microdilution method
Format: functional
condition info: MC4100, 72 h
In plain terms, low MIC, meaning strictly below 20 µM, gives fulfilled, and everything else gives not fulfilled.

>  <input smiles>
CCCCCCCCCCCCCCCCCCCC[N+](C)(C)CC[N+](C)(C)CCCCCCCCCC

>  <classification>
fulfilled

$$$$
>  <input smiles>
CCCCCCCCCCCCCCCCCC[N+](C)(C)CC[N+](C)(C)CCCCCCCCCCCC

>  <classification>
fulfilled

$$$$
>  <input smiles>
CCCCCCCCCCCCCCCCCCCC[N+](C)(C)CC[N+](C)(C)CCCCCCCCCCCCCCCC

>  <classification>
not fulfilled

$$$$
>  <input smiles>
CCCCCCCCCCCCCCCCCCCC[N+](C)(C)CC[N+](C)(C)CCCCCCCC

>  <classification>
fulfilled

$$$$
>  <input smiles>
CCCCCCCCCCCCCCCC[N+](C)(C)CC[N+](C)(C)CCCCCCCCCCCC

>  <classification>
fulfilled

$$$$
>  <input smiles>
CCCCCCCCCCCCCC[N+](C)(C)CC[N+](C)(C)CCCCCCCCCC

>  <classification>
fulfilled

$$$$
>  <input smiles>
CCCCCCCCCCCCCCCCCC[N+](C)(C)CC[N+](C)(C)CCCCCCCCCCCCCC

>  <classification>
fulfilled

$$$$
>  <input smiles>
CCCCCCCCCCCCCCCCCC[N+](C)(C)CC[N+](C)(C)CCCCCCCC

>  <classification>
fulfilled

$$$$
>  <input smiles>
CCCCCCCCCCCCCCCCCC[N+](C)(C)CCN(C)C

>  <classification>
not fulfilled

$$$$
>  <input smiles>
CCCCCCCCCCCC[N+](C)(C)CC[N+](C)(C)CCCCCCCCCCCC

>  <classification>
fulfilled

$$$$
>  <input smiles>
CCCCCCCCCCCCCC[N+](C)(C)CCN(C)C

>  <classification>
fulfilled

$$$$
>  <input smiles>
CCCCCCCCCCCCC[N+](C)(C)CC[N+](C)(C)CCCCCCCCCC

>  <classification>
fulfilled

$$$$
>  <input smiles>
CCCCCCCCCCCCCCCC[N+](C)(C)CCN(C)C

>  <classification>
fulfilled

$$$$
>  <input smiles>
CCCCCCCCCCCCCCCC[N+](C)(C)CC[N+](C)(C)CCCCCCCCCCCCCCCC

>  <classification>
not fulfilled

$$$$
>  <input smiles>
CCCCCCCCCC[N+](C)(C)CC[N+](C)(C)CCCCCCCCCC

>  <classification>
fulfilled

$$$$

###

Measured log10(MIC) by item
Tested on: Staphylococcus aureus
assay comment: Antibacterial activity against Staphylococcus aureus SH1000 assessed as growth inhibition after 72 hrs by broth microdilution method
Format: functional
condition info: SH1000, 72 h
quantity kind: log10(MIC) (log10 of the value in µM)

>  <input smiles>
CCCCCCCCCCCC[N+](C)(C)CC[N+](C)(C)CCCCCCCC

>  <test value>
0.00

$$$$
>  <input smiles>
CCCCCCCCCCCCCCCCCC[N+](C)(C)CCN(C)C

>  <test value>
0.30

$$$$
>  <input smiles>
CCCCCCCCCCCCCCCCCC[N+](C)(C)CC[N+](C)(C)CCCCCCCCCCCCCCCC

>  <test value>
1.20

$$$$
>  <input smiles>
CCCCCCCCCCCCCCCC[N+](C)(C)CC[N+](C)(C)CCCCCCCCCCCCCC

>  <test value>
0.90

$$$$
>  <input smiles>
CCCCCCCCCCCCCCCCCC[N+](C)(C)CC[N+](C)(C)CCCCCCCCCCCCCCCCCC

>  <test value>
1.51

$$$$
>  <input smiles>
CCCCCCCCCC[N+](C)(C)CC[N+](C)(C)CCCCCCCC

>  <test value>
0.90

$$$$
>  <input smiles>
CCCCCCCCCCCCCC[N+](C)(C)CC[N+](C)(C)CCCCCCCCCCCCCC

>  <test value>
0.60

$$$$
>  <input smiles>
CCCCCCCCCCCC[N+](C)(C)CCN(C)C

>  <test value>
1.51

$$$$
>  <input smiles>
CCCCCCCCCCCCCCCCCC[N+](C)(C)CC[N+](C)(C)CCCCCCCCCCCC

>  <test value>
0.60

$$$$
>  <input smiles>
CCCCCCCCCCCCCCCC[N+](C)(C)CC[N+](C)(C)CCCCCCCC

>  <test value>
0.30

$$$$
>  <input smiles>
CCCCCCCCCCCC[N+](C)(C)CC[N+](C)(C)CCCCCCCCCCCC

>  <test value>
0.00

$$$$
>  <input smiles>
CCCCCCCCCCCCC[N+](C)(C)CC[N+](C)(C)CCCCCCCCCC

>  <test value>
0.00

$$$$
>  <input smiles>
CCCCCCCCCCCCCCCCCCCC[N+](C)(C)CC[N+](C)(C)CCCCCCCC

>  <test value>
0.60

$$$$
>  <input smiles>
CCCCCCCCCC[N+](C)(C)CC[N+](C)(C)CCCCCCCCCC

>  <test value>
0.30

$$$$
>  <input smiles>
CCCCCCCCCCCCCCCCCC[N+](C)(C)CC[N+](C)(C)CCCCCCCCCC

>  <test value>
0.60

$$$$
>  <input smiles>
CCCCCCCCCCCC[N+](C)(C)CC[N+](C)(C)CCCCCCCCCC

>  <test value>
0.00

$$$$
>  <input smiles>
CCCCCCCCCCCCCCCCCCCC[N+](C)(C)CC[N+](C)(C)CCCCCCCCCC

>  <test value>
0.60

$$$$
>  <input smiles>
CCCCCCCCCCCCCC[N+](C)(C)CC[N+](C)(C)CCCCCCCCCCCC

>  <test value>
0.00

$$$$
>  <input smiles>
CCCCCCCCCCCCCCCCCCCC[N+](C)(C)CC[N+](C)(C)CCCCCCCCCCCCCCCC

>  <test value>
1.20

$$$$
>  <input smiles>
CCCCCCCCCCCCCCCC[N+](C)(C)CC[N+](C)(C)CCCCCCCCCC

>  <test value>
0.60

$$$$
>  <input smiles>
CCCCCCCCCCCCCC[N+](C)(C)CCN(C)C

>  <test value>
0.30

$$$$
>  <input smiles>
CCCCCCCCCCCCCCCCCC[N+](C)(C)CC[N+](C)(C)CCCCCCCCCCCCCC

>  <test value>
0.90

$$$$
